These entries and their values trace back to patent US11214803B2.

Test system: Yap1 mRNA
measurement.protocol: Dose-dependent inhibition of human Yap1 in A-431 cells (Example 8, 10,000 cells per well, RTS4814)
Format: cell-based
assay.conditions: 31.3 nM; A-431 cells, 10,000 cells per well, free uptake, approximately 48 hours, RTS4814
Strand notation (5' to 3'): a small letter for the sugar, then the base; units joined by * are phosphorothioate-linked, units joined directly phosphodiester-linked; [ ] holds rarer units or linkages, { } end groups; capitals alone tell only the bases. k = constrained ethyl (cEt); [5mC] = 5-methylcytosine; d = 2'-deoxy (DNA)
The reader will find reported Yap1 mRNA, % UTC values listed item by item below.

- substance: "1074535 (kG*kT*kA*dA*dT*dA*dG*d[5mC]*dT*d[5mC]*dT*dT*dT*k[5mC]*kT*kA; antisense) [compound 1074535]"
  target.system: "Yap1 mRNA"
  Yap1 mRNA, % UTC: "57 % UTC"
- substance: "1075808 (kG*k[5mC]*kA*dA*dT*dA*dG*dA*dG*dT*dA*dA*d[5mC]*k[5mC]*kA*kG; antisense) [compound 1075808]"
  target.system: "Yap1 mRNA"
  Yap1 mRNA, % UTC: "38 % UTC"
- substance: "1074448 (kT*kA*kA*dT*dG*dA*dT*dA*dG*d[5mC]*dA*d[5mC]*dT*kA*kG*kG; antisense) [compound 1074448]"
  target.system: "Yap1 mRNA"
  Yap1 mRNA, % UTC: "54 % UTC"
- substance: "1074795 (k[5mC]*k[5mC]*kA*dA*dA*dT*d[5mC]*dA*dA*dT*dG*dT*dG*k[5mC]*kT*k[5mC]; antisense) [compound 1074795]"
  target.system: "Yap1 mRNA"
  Yap1 mRNA, % UTC: "38 % UTC"
- substance: "1076388 (antisense kG*kA*kA*dA*dT*dA*dT*dT*d[5mC]*dG*dA*dG*dA*kA*kG*kA) [compound 1076388]"
  target.system: "Yap1 mRNA"
  Yap1 mRNA, % UTC: "87 % UTC"
- substance: "1074577 (DNA kT*kA*kT*dT*dT*d[5mC]*dT*dG*dT*d[5mC]*dA*dT*dG*k[5mC]*kA*k[5mC]) [compound 1074577]"
  target.system: "Yap1 mRNA"
  Yap1 mRNA, % UTC: "33 % UTC"
- substance: "1074798 (kG*k[5mC]*kT*dT*dT*dG*dG*dA*dA*dG*dA*dT*d[5mC]*kT*kG*kA) [compound 1074798]"
  target.system: "Yap1 mRNA"
  Yap1 mRNA, % UTC: "34 % UTC"
- substance: "1075137 (kG*kA*kT*dT*dA*dA*dA*dT*dA*d[5mC]*dT*dG*dA*k[5mC]*k[5mC]*kA; antisense) [compound 1075137]"
  target.system: "Yap1 mRNA"
  Yap1 mRNA, % UTC: "70 % UTC"
- substance: "1074447 (kA*kA*kT*dG*dA*dT*dA*dG*d[5mC]*dA*d[5mC]*dT*dA*kG*kG*kA; antisense) [compound 1074447]"
  target.system: "Yap1 mRNA"
  Yap1 mRNA, % UTC: "47 % UTC"
- substance: "1076523 (kA*kT*kT*dT*dA*dT*dA*dT*d[5mC]*dA*dG*dG*dT*k[5mC]*kA*kA; antisense) [compound 1076523]"
  target.system: "Yap1 mRNA"
  Yap1 mRNA, % UTC: "67 % UTC"
- substance: "1076489 (k[5mC]*kA*kA*dA*dA*dT*dA*dG*dG*dT*dG*dA*dG*kT*k[5mC]*kA; antisense) [compound 1076489]"
  target.system: "Yap1 mRNA"
  Yap1 mRNA, % UTC: "43 % UTC"
- substance: "1076000 (k[5mC]*k[5mC]*kT*dA*dA*dT*dA*dT*dG*dA*d[5mC]*dT*d[5mC]*k[5mC]*kT*kT; antisense) [compound 1076000]"
  target.system: "Yap1 mRNA"
  Yap1 mRNA, % UTC: "71 % UTC"
- substance: "1074579 (DNA k[5mC]*k[5mC]*kA*d[5mC]*dT*dA*dT*dA*dA*dA*dG*d[5mC]*dT*kT*kA*kT) [compound 1074579]"
  target.system: "Yap1 mRNA"
  Yap1 mRNA, % UTC: "54 % UTC"
